Target: Phospholipid-transporting ATPase ABCA1 (Mus musculus, UniProt P41233)
Sequence (P41233 whole entry): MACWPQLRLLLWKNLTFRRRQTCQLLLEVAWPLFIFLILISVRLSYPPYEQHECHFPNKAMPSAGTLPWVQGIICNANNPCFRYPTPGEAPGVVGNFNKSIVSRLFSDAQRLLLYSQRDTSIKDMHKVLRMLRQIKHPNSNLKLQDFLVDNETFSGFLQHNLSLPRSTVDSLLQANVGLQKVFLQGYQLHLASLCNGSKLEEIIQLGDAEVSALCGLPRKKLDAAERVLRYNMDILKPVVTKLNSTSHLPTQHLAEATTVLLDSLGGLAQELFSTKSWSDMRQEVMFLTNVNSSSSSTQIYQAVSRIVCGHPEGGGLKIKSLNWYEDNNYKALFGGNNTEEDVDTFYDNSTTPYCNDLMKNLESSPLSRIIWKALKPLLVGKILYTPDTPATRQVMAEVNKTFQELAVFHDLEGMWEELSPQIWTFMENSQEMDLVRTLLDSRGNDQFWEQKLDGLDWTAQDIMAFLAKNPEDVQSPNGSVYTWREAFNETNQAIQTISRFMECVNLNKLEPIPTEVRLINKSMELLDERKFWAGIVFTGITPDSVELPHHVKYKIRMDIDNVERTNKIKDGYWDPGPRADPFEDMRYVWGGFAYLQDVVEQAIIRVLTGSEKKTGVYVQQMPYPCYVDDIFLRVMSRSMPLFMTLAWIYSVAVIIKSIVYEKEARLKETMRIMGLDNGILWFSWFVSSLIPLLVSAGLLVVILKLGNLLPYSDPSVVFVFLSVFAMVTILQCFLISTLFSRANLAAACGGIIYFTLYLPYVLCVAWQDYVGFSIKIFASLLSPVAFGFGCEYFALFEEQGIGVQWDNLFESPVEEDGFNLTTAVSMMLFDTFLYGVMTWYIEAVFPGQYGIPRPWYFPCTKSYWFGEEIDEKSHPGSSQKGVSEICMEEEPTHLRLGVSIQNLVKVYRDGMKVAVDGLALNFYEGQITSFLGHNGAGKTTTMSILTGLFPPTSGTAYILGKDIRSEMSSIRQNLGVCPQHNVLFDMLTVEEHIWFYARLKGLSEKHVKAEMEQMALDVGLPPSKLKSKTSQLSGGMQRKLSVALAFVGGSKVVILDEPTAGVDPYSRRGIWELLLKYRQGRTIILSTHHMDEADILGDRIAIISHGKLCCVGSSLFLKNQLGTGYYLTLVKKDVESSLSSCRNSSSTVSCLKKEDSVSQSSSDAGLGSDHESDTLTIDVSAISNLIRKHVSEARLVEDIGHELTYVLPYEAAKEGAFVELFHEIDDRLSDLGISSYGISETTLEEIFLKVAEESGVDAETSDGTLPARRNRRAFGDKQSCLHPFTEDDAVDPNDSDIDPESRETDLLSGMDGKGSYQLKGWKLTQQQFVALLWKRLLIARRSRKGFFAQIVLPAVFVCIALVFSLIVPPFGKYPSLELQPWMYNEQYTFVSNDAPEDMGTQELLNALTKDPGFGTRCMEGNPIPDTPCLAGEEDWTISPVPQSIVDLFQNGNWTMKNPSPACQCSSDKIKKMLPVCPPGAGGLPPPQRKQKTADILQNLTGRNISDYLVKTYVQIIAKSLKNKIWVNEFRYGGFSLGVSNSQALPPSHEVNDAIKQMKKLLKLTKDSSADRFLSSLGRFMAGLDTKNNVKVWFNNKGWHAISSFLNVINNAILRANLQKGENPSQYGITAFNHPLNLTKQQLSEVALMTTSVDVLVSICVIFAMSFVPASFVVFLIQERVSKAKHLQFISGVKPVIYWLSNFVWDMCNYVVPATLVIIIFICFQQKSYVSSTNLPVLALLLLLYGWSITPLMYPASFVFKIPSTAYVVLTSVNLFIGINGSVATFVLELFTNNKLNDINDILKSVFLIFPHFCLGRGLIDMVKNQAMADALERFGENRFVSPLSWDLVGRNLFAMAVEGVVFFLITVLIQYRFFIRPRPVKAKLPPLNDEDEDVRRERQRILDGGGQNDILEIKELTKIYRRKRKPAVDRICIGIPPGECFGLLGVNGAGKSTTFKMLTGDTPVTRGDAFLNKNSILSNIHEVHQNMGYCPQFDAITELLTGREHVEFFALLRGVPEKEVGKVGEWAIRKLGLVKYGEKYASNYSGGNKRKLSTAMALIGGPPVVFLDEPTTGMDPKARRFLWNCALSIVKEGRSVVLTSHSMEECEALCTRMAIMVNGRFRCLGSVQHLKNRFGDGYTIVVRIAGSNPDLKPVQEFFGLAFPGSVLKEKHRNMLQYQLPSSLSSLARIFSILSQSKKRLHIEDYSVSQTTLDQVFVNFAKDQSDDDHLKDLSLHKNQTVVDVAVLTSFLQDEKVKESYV
Assay: Induction of ABCA1-mediated [3H]cholesterol efflux in mouse RAW 264.7 macrophages after 24 hrs

substance	EC50
Ac-PVLDEFREKLNEELEALKQKLK-NH2	> 100 µM
